system: P. aeruginosa PA01 (H103); assay type: cell-based, Pseudomonas aeruginosa; conditions: H103, 18 h
Non-standard residues stand in square brackets, D forms with d. Residues, ends and D or L forms follow the SMILES beside them. N(4-Br-benzyl)Gly = O=C(O)CNCc1ccc(Br)cc1; N(4-F-Bzl)Gly = O=C(O)CNCc1ccc(F)cc1; NBzl(4-I)Gly = O=C(O)CNCc1ccc(I)cc1; Nphe = O=C(O)CNCc1ccccc1; Nlys = NCCCCNCC(=O)O
readout label: Minimal inhibitory concentration PA^g

molecule	Minimal inhibitory concentration PA^g
NCCCCNCC(=O)N(CC(=O)N(CCCCN)CC(=O)N(CC(=O)N(CCCCN)CC(=O)N(CC(=O)N(CCCCN)CC(=O)N(CC(=O)N(CCCCN)CC(=O)N(CC(=O)N(CCCCN)CC(=O)N(CC(N)=O)Cc1ccc(Br)cc1)Cc1ccccc1)Cc1ccc(Br)cc1)Cc1ccccc1)Cc1ccc(Br)cc1)Cc1ccccc1 [Compound 35] (H-[Nlys][Nphe][Nlys][N(4-Br-benzyl)Gly][Nlys][Nphe][Nlys][N(4-Br-benzyl)Gly][Nlys][Nphe][Nlys][N(4-Br-benzyl)Gly]-NH2)	> 512 µg/mL

Ask: Write down the reported Minimal inhibitory concentration PA^g (system: P. aeruginosa PA01 (H103)) of NCCCCNCC(=O)N(CC(=O)N(CCCCN)CC(=O)N(CC(=O)N(CCCCN)CC(=O)N(CC(N)=O)Cc1ccc(F)cc1)Cc1ccccc1)Cc1ccc(F)cc1 [Compound 6] (H-[Nlys][N(4-F-Bzl)Gly][Nlys][Nphe][Nlys][N(4-F-Bzl)Gly]-NH2)
Result: > 512 µg/mL

Ask: Write down the reported Minimal inhibitory concentration PA^g (system: P. aeruginosa PA01 (H103)) of NCCCCNCC(=O)N(CC(=O)N(CCCCN)CC(=O)N(CC(=O)N(CCCCN)CC(=O)N(CC(=O)N(CCCCN)CC(=O)N(CC(=O)N(CCCCN)CC(=O)N(CC(N)=O)Cc1ccc(I)cc1)Cc1ccc(I)cc1)Cc1ccc(I)cc1)Cc1ccc(I)cc1)Cc1ccc(I)cc1 [Compound 23] (H-[Nlys][NBzl(4-I)Gly][Nlys][NBzl(4-I)Gly][Nlys][NBzl(4-I)Gly][Nlys][NBzl(4-I)Gly][Nlys][NBzl(4-I)Gly]-NH2)
Result: > 512 µg/mL

====

assay: Critical aggregation concentration from SAXS fit analysis; type: physicochemical
Non-standard residues stand in square brackets, D forms with d. Residues, ends and D or L forms follow the SMILES beside them. N(4-Br-benzyl)Gly = O=C(O)CNCc1ccc(Br)cc1; NBzl(4-I)Gly = O=C(O)CNCc1ccc(I)cc1; Nlys = NCCCCNCC(=O)O
# reported critical aggregation concentration (CAC); entries follow
Only the number, expressed in mg/mL, is required.

compound	recorded value
NCCCCNCC(=O)N(CC(=O)N(CCCCN)CC(=O)N(CC(=O)N(CCCCN)CC(=O)N(CC(=O)N(CCCCN)CC(=O)N(CC(=O)N(CCCCN)CC(=O)N(CC(N)=O)Cc1ccc(Br)cc1)Cc1ccc(Br)cc1)Cc1ccc(Br)cc1)Cc1ccc(Br)cc1)Cc1ccc(Br)cc1 [Compound 22] (H-[Nlys][N(4-Br-benzyl)Gly][Nlys][N(4-Br-benzyl)Gly][Nlys][N(4-Br-benzyl)Gly][Nlys][N(4-Br-benzyl)Gly][Nlys][N(4-Br-benzyl)Gly]-NH2)	2.3

Next compound, please.
Ask: Supply recorded critical aggregation concentration (CAC) for NCCCCNCC(=O)N(CC(=O)N(CCCCN)CC(=O)N(CC(=O)N(CCCCN)CC(=O)N(CC(=O)N(CCCCN)CC(=O)N(CC(=O)N(CCCCN)CC(=O)N(CC(=O)N(CCCCN)CC(=O)N(CC(N)=O)Cc1ccc(I)cc1)Cc1ccc(I)cc1)Cc1ccc(I)cc1)Cc1ccc(I)cc1)Cc1ccc(I)cc1)Cc1ccc(I)cc1 [Compound 32] (H-[Nlys][NBzl(4-I)Gly][Nlys][NBzl(4-I)Gly][Nlys][NBzl(4-I)Gly][Nlys][NBzl(4-I)Gly][Nlys][NBzl(4-I)Gly][Nlys][NBzl(4-I)Gly]-NH2) here.
Result: 0.4
